Target: SARS-CoV-2 spike RBD (WT) (Severe acute respiratory syndrome …, UniProt P0DTC2)
Test: BLI
Below, each entry is listed alongside its reported Kd.
Kindly answer with a numeric value in nM, unit omitted.

Sample records with Kd:
A21 (antibody, V domains shown) VH: QVQLQQSGAELVKPGASVKISCKASGYSFSDYWMNWVKQRPGKGLEWIGQIFPGDGDTNYNGKFKGKAALTADKSSSTAYMQLSSLTSEDSAVYFCARRELNYFDYWGQGTTLTVSS VL: QIVLTQSPAIMSASPGEKVTMTCSASSSVSYMFWYQQKPGSSPRLLIYDTSNLASGVPVRFSGSGSGTSYSLTVSRMEAEDAATYYCQQWSSYPLTFGSGTKLEIK	138
B46 (antibody, V domains shown) VH: QVQLQQPGAELVKPGASVKVSCKASGYTFTSYWMHWVKQRPGQGLEWIGRIHPSDSDTNYNQNFKGKATLTVDKSSSTAYMQLSSLTSEDSAVYYCALDGYYGIWWGQGTLVTVSA VL: DIVMTQSQKFMSTSVGDRVSVTCKASQNVGTNVAWYQQKPGQSPKALIYSASYRYSGVPDRFTGSGSGTDFTLTISNVQSEDLAEYFCQQCNSYPLTFGGGTKLEIK	282

Input line: Param item = A47 (antibody, V domains shown) VH: HVQLQQPGAELVKPGASVKVSCKASGYTFTSFWMHWVKQRPGQGLEWIGGIHPSDSDTNYNQKFKGKATLTVNKSSSTAYMQLSSLTSEDSAVYYCAIGDECANWGQGTLVTVSA VL: DIVLTQSPASLAVSLGQRATISCRASKSVSTSGYSYMHWYQQKPGQPPKLLIYLASNLESGVPARFSGSGSGTDFTLNIHPVEEEDAATYYCHHSRELPFTFGSGTKLEIK ; retrieve measured Kd.
Output line: 142
